assayInfo: Aqueous solubility of the compound of formula (I)
Assay type: physicochemical
conditionsUsed: water (aqueous); room temperature
resultType: solubility (µg/mL)

molecule	resultType	result
CC(C)CN(C[C@@H](O)[C@H](Cc1ccccc1)NC(=O)O[C@H]1CCOC1)S(=O)(=O)c1ccc(N)cc1 (relative stereo)	solubility	95
